Test system: 266295-075-R-J1-PDC spheroid viability
assay.explanation: Anticancer human tumor 266295-075-R-J1-PDC patient-derived head and neck squamous carcinoma cell line growth inhibition [POLQ]
protocol.conditions: second compound 0.1 µM; first compound 0.1 µM; hits give low values; spheroids with HUVEC and MSC

compound	result.unit	viability, T/C
C#Cc1c(F)ccc2cc(O)cc(-c3ncc4c(N5CC6CCC(C5)N6)nc(OCC56CCCN5CC(F)C6)nc4c3F)c12 (stereo not given) + COC1C(OC(N)=O)C(O)C(Oc2ccc3c(O)c(NC(=O)c4ccc(O)c(CC=C(C)C)c4)c(=O)oc3c2C)OC1(C)C	%	84.9
C=CCn1c(=O)c2cnc(Nc3ccc(N4CCN(C)CC4)cc3)nc2n1-c1cccc(C(C)(C)O)n1 + Cc1cccc(N(C)C(=O)C2C(O)CCN2c2nc(C)cc(C(F)(F)F)c2C#N)c1	%	127
COc1ccc([C@@H](O)c2cc(-c3ncnc4cc(N5CCOCC5)ccc34)c(F)cc2Cl)nn1 + Nc1ccc(C#CCN(C(=O)Cc2ncc(C(F)(F)F)cc2C(F)(F)F)c2ccc(F)cc2)nn1	%	89.7
CC1COCCN1c1cc(-c2ccnn2C)c2ccnc(-c3ccn[nH]3)c2n1 (stereo not given) + Nc1ccc(C#CCN(C(=O)Cc2ncc(C(F)(F)F)cc2C(F)(F)F)c2ccc(F)cc2)nn1	%	84.4
CCc1cc2c(N3CCc4c(cc(Cn5ccnc5)cc4-c4cn(C)nc4C(F)(F)F)C3=O)ccnc2c(OC)n1 + COC1C(OC(N)=O)C(O)C(Oc2ccc3c(O)c(NC(=O)c4ccc(O)c(CC=C(C)C)c4)c(=O)oc3c2C)OC1(C)C	%	96.8
CCc1c2c(nc3ccc(O)cc13)-c1cc3c(c(=O)n1C2)COC(=O)[C@]3(O)CC + Cc1cccc(N(C)C(=O)C2C(O)CCN2c2nc(C)cc(C(F)(F)F)c2C#N)c1	%	81.9
CC1COCCN1c1cc(C2(S(C)(=N)=O)CC2)nc(-c2ccnc3[nH]ccc23)n1 (stereo not given) + Nc1ccc(C#CCN(C(=O)Cc2ncc(C(F)(F)F)cc2C(F)(F)F)c2ccc(F)cc2)nn1	%	116
CC1COCCN1c1cc(C2(O)CC3CCC(C2)O3)c2cnn(-c3ccn[nH]3)c2n1 (stereo not given) + Cc1cccc(N(C)C(=O)C2C(O)CCN2c2nc(C)cc(C(F)(F)F)c2C#N)c1	%	69.1
CC[C@@]1(O)C(=O)OCc2c1cc1n(c2=O)Cc2cc3c(CN(C)C)c(O)ccc3nc2-1 + Nc1ccc(C#CCN(C(=O)Cc2ncc(C(F)(F)F)cc2C(F)(F)F)c2ccc(F)cc2)nn1	%	114
CC[C@@]1(O)C(=O)OCc2c1cc1n(c2=O)Cc2cc3c(CN(C)C)c(O)ccc3nc2-1 + Cc1cccc(N(C)C(=O)C2C(O)CCN2c2nc(C)cc(C(F)(F)F)c2C#N)c1	%	77.8

* * *

Recorded viability, T/C for the following molecules
System: 266295-075-R-J1-PDC spheroid viability
assay.explanation: Anticancer human tumor 266295-075-R-J1-PDC cell line growth inhibition [POLQ];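 further: spheroids exposed to compounds for seven days before readout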
protocol.conditions: second compound 0.0316 µM; first compound 0.316 µM; hits give low values; spheroids with HUVEC and MSC

molecule	measured.target	viability, T/C [%]
O=C(Nc1ccc(O)c(NS(=O)(=O)c2ccc(F)cc2)c1)c1ccc(-c2ccccc2)cc1 + Nc1ccc(C#CCN(C(=O)Cc2ncc(C(F)(F)F)cc2C(F)(F)F)c2ccc(F)cc2)nn1	266295-075-R-J1-PDC spheroid viability	96.8
CCc1cc2c(N3CCc4c(cc(Cn5ccnc5)cc4-c4cn(C)nc4C(F)(F)F)C3=O)cc(C)nc2c(OC)n1 + COC1C(OC(N)=O)C(O)C(Oc2ccc3c(O)c(NC(=O)c4ccc(O)c(CC=C(C)C)c4)c(=O)oc3c2C)OC1(C)C	266295-075-R-J1-PDC spheroid viability	114
CC1COCCN1c1cc(-c2ccnn2C)c2ccnc(-c3ccn[nH]3)c2n1 (stereo not given) + Cc1cccc(N(C)C(=O)C2C(O)CCN2c2nc(C)cc(C(F)(F)F)c2C#N)c1	266295-075-R-J1-PDC spheroid viability	68.4
C=CCn1c(=O)c2cnc(Nc3ccc(N4CCN(C)CC4)cc3)nc2n1-c1cccc(C(C)(C)O)n1 + COC1C(OC(N)=O)C(O)C(Oc2ccc3c(O)c(NC(=O)c4ccc(O)c(CC=C(C)C)c4)c(=O)oc3c2C)OC1(C)C	266295-075-R-J1-PDC spheroid viability	91.4
COc1ccc([C@@H](O)c2cc(-c3ncnc4cc(N5CCOCC5)ccc34)c(F)cc2Cl)nn1 + Cc1cccc(N(C)C(=O)C2C(O)CCN2c2nc(C)cc(C(F)(F)F)c2C#N)c1	266295-075-R-J1-PDC spheroid viability	73.5
COc1cccc2c1C(=O)c1c(O)c3c(c(O)c1C2=O)CC(O)(C(=O)CO)CC3OC1CC(N)C(O)C(C)O1 (stereo not given) + COC1C(OC(N)=O)C(O)C(Oc2ccc3c(O)c(NC(=O)c4ccc(O)c(CC=C(C)C)c4)c(=O)oc3c2C)OC1(C)C	266295-075-R-J1-PDC spheroid viability	82.4
CCc1c2c(nc3ccc(O)cc13)-c1cc3c(c(=O)n1C2)COC(=O)[C@]3(O)CC + COC1C(OC(N)=O)C(O)C(Oc2ccc3c(O)c(NC(=O)c4ccc(O)c(CC=C(C)C)c4)c(=O)oc3c2C)OC1(C)C	266295-075-R-J1-PDC spheroid viability	96.7
COc1cc(C2c3cc4c(cc3C(OC3OC5COC(C)OC5C(O)C3O)C3COC(=O)C23)OCO4)cc(OC)c1O (stereo not given) + Cc1cccc(N(C)C(=O)C2C(O)CCN2c2nc(C)cc(C(F)(F)F)c2C#N)c1	266295-075-R-J1-PDC spheroid viability	82.2
CC1COCCN1c1cc(C2(S(C)(=N)=O)CC2)nc(-c2ccnc3[nH]ccc23)n1 (stereo not given) + Cc1cccc(N(C)C(=O)C2C(O)CCN2c2nc(C)cc(C(F)(F)F)c2C#N)c1	266295-075-R-J1-PDC spheroid viability	87
CCCS(=O)(=O)Nc1ccc(F)c(C(=O)c2c[nH]c3ncc(-c4ccc(Cl)cc4)cc23)c1F + Cc1cccc(N(C)C(=O)C2C(O)CCN2c2nc(C)cc(C(F)(F)F)c2C#N)c1	266295-075-R-J1-PDC spheroid viability	122

* * *

Quick list: viability, T/C per entry.
System: 266295-075-R-J1-PDC spheroid viability
assay.explanation: Anticancer human tumor 266295-075-R-J1-PDC cell line growth inhibition [POLQ];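 further: spheroids exposed to compounds for seven days before readout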
protocol.conditions: second compound 0.316 µM; first compound 1 µM; hits give low values; spheroids with HUVEC and MSC

compound	viability, T/C [%]
COc1cc(C2c3cc4c(cc3C(OC3OC5COC(C)OC5C(O)C3O)C3COC(=O)C23)OCO4)cc(OC)c1O (stereo not drawn) + Cc1cccc(N(C)C(=O)C2C(O)CCN2c2nc(C)cc(C(F)(F)F)c2C#N)c1	76.3
CNCc1ccc(-c2[nH]c3cc(F)cc4c3c2CCNC4=O)cc1 + Nc1ccc(C#CCN(C(=O)Cc2ncc(C(F)(F)F)cc2C(F)(F)F)c2ccc(F)cc2)nn1	87.2
CC1COCCN1c1cc(-c2ccnn2C)c2ccnc(-c3ccn[nH]3)c2n1 (stereo not drawn) + Nc1ccc(C#CCN(C(=O)Cc2ncc(C(F)(F)F)cc2C(F)(F)F)c2ccc(F)cc2)nn1	55.6

* * *

System: 266295-075-R-J1-PDC spheroid viability
assay.explanation: Anticancer human tumor 266295-075-R-J1-PDC cell line growth inhibition [POLQ];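 further: spheroids exposed to compounds for seven days before readout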
protocol.conditions: second compound 0.316 µM; first compound 0.0316 µM; hits give low values; spheroids with HUVEC and MSC
Listed next: entries and their corresponding viability, T/C.
measured.endpoint: viability, T/C (%)

compound	measured.endpoint	result.unit	value.measured
CCCS(=O)(=O)Nc1ccc(F)c(C(=O)c2c[nH]c3ncc(-c4ccc(Cl)cc4)cc23)c1F + Cc1cccc(N(C)C(=O)C2C(O)CCN2c2nc(C)cc(C(F)(F)F)c2C#N)c1	viability, T/C	%	95.5
CC[C@@]1(O)C(=O)OCc2c1cc1n(c2=O)Cc2cc3c(CN(C)C)c(O)ccc3nc2-1 + Nc1ccc(C#CCN(C(=O)Cc2ncc(C(F)(F)F)cc2C(F)(F)F)c2ccc(F)cc2)nn1	viability, T/C	%	116
O=C(Nc1ccc(O)c(NS(=O)(=O)c2ccc(F)cc2)c1)c1ccc(-c2ccccc2)cc1 + Nc1ccc(C#CCN(C(=O)Cc2ncc(C(F)(F)F)cc2C(F)(F)F)c2ccc(F)cc2)nn1	viability, T/C	%	103
CC1COCCN1c1cc(C2(O)CC3CCC(C2)O3)c2cnn(-c3ccn[nH]3)c2n1 (stereo unspecified) + Nc1ccc(C#CCN(C(=O)Cc2ncc(C(F)(F)F)cc2C(F)(F)F)c2ccc(F)cc2)nn1	viability, T/C	%	94.9
Cn1ncnc1[C@H]1c2n[nH]c(=O)c3cc(F)cc(c23)N[C@@H]1c1ccc(F)cc1 + Cc1cccc(N(C)C(=O)C2C(O)CCN2c2nc(C)cc(C(F)(F)F)c2C#N)c1	viability, T/C	%	95.7
C=CCn1c(=O)c2cnc(Nc3ccc(N4CCN(C)CC4)cc3)nc2n1-c1cccc(C(C)(C)O)n1 + Cc1cccc(N(C)C(=O)C2C(O)CCN2c2nc(C)cc(C(F)(F)F)c2C#N)c1	viability, T/C	%	99.7
Nc1ccn(C2OC(CO)C(O)C2(F)F)c(=O)n1 (stereo unspecified) + Cc1cccc(N(C)C(=O)C2C(O)CCN2c2nc(C)cc(C(F)(F)F)c2C#N)c1	viability, T/C	%	87.8
CCCS(=O)(=O)Nc1ccc(F)c(C(=O)c2c[nH]c3ncc(-c4ccc(Cl)cc4)cc23)c1F + COC1C(OC(N)=O)C(O)C(Oc2ccc3c(O)c(NC(=O)c4ccc(O)c(CC=C(C)C)c4)c(=O)oc3c2C)OC1(C)C	viability, T/C	%	116
Nc1ccn(C2OC(CO)C(O)C2(F)F)c(=O)n1 (stereo unspecified) + COC1C(OC(N)=O)C(O)C(Oc2ccc3c(O)c(NC(=O)c4ccc(O)c(CC=C(C)C)c4)c(=O)oc3c2C)OC1(C)C	viability, T/C	%	100
CC1COCCN1c1cc(-c2ccnn2C)c2ccnc(-c3ccn[nH]3)c2n1 (stereo unspecified) + Cc1cccc(N(C)C(=O)C2C(O)CCN2c2nc(C)cc(C(F)(F)F)c2C#N)c1	viability, T/C	%	75.6
CCCS(=O)(=O)Nc1ccc(F)c(C(=O)c2c[nH]c3ncc(-c4ccc(Cl)cc4)cc23)c1F + Nc1ccc(C#CCN(C(=O)Cc2ncc(C(F)(F)F)cc2C(F)(F)F)c2ccc(F)cc2)nn1	viability, T/C	%	102
